Molecular target: Plk1 (Homo sapiens)
Construct: in the presence of 15 nM Plk1 (A20-K338)
Test: Plk1 inhibition assay (radioactive-phosphate incorporation)
Details: Ki(app) from initial rate data
Quantity: Ki

Example entries begin here.
Compound: CCOC(=O)Nc1ccn2c(-c3cc(OC(C)c4ccccc4Cl)c(C(N)=O)s3)cnc2c1 (stereo not drawn)
Study Target: Plk1 (Homo sapiens)
Quantity: Ki
Assay Value: < 100 nM
--
Compound: CNC(=O)c1ccc2ncc(-c3cc(OC(C)c4ccccc4Cl)c(C(N)=O)s3)n2c1 (stereo not drawn)
Study Target: Plk1 (Homo sapiens)
Quantity: Ki
Assay Value: < 100 nM
--
Compound: CNC(=O)c1sc(-c2cnc3ccccn23)cc1OC(C)c1ccccc1Cl (stereo not drawn)
Study Target: Plk1 (Homo sapiens)
Quantity: Ki
Assay Value: > 1000 nM
--
Compound: COc1cnc2[nH]cc(-c3cc(OC(C)c4ccccc4Cl)c(C(N)=O)s3)c2c1 (stereo not drawn)
Study Target: Plk1 (Homo sapiens)
Quantity: Ki
Assay Value: < 100 nM
--
Compound: CC(Oc1cc(-c2cnc3cccnn23)sc1C(N)=O)c1ccccc1Cl (stereo not drawn)
Study Target: Plk1 (Homo sapiens)
Quantity: Ki
Assay Value: < 100 nM

Inquiry: Endpoint output: Ki of CC(Oc1cc(-c2cnc3ccc(C(F)(F)F)cn23)sc1C(N)=O)c1ccccc1Cl (stereo not drawn) . Value?
Reply text: < 100 nM

Inquiry: What do you get for CCOC(=O)N(C)c1ccn2c(-c3cc(OC(C)c4ccccc4Cl)c(C(N)=O)s3)cnc2c1 (stereo not drawn) ?
Reply text: < 100 nM

Inquiry: What do you get for CC(Oc1cc(-c2nnc3ccc(N)nn23)sc1C(N)=O)c1ccccc1Cl (stereo not drawn) ?
Reply text: > 1000 nM

Inquiry: What do you get for COC(=O)Nc1ccn2c(-c3cc(O[C@@H](C)c4ccccc4Cl)c(C(N)=O)s3)cnc2c1 ?
Reply text: < 100 nM

====

Entries and their Ki values follow.
Molecular target: Plk1 (Homo sapiens, UniProt P53350)
Construct: in the presence of 15 nM Plk1 (A20-K338)
Sequence (P53350 20-338): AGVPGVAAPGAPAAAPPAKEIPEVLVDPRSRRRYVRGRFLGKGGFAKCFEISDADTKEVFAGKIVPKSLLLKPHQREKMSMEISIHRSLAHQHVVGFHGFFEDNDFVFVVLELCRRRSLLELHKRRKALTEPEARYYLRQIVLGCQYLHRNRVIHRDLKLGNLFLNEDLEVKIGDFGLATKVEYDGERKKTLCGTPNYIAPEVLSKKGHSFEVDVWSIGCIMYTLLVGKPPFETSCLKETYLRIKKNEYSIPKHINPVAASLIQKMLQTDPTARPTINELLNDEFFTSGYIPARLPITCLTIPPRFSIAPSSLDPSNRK
Assay: Plk1 inhibition assay (radioactive-phosphate incorporation)
Settings: Ki(app) from initial rate data

Compound: CNC(=O)c1ccn2c(-c3cc(OC(C)c4ccccc4Cl)c(C(N)=O)s3)cnc2c1 (stereo not drawn)
Ki: < 0.1 µM
--
Compound: CC(Oc1cc(-c2cnc3cc(C(F)(F)F)ccn23)sc1C(N)=O)c1ccccc1Cl (stereo not drawn)
Ki: < 0.1 µM
--
Compound: C=Cc1cnc2[nH]cc(-c3cc(OC(C)c4ccccc4Cl)c(C(N)=O)s3)c2c1 (stereo not drawn)
Ki: < 0.1 µM

Inquiry: Endpoint output: Ki of CCOC(=O)Nc1ccn2c(-c3cc(OC(C)(C)c4ccccc4Cl)c(C(N)=O)s3)cnc2c1 . Value?
Reply text: < 0.1 µM

Inquiry: What do you get for CC(Oc1cc(-c2cnc3ccc(F)cn23)sc1C(N)=O)c1ccccc1Cl (stereo not drawn) ?
Reply text: < 0.1 µM

Inquiry: What do you get for CCOC(=O)Nc1ccn2c(-c3cc(O[C@@H](CC)c4ccccc4Cl)c(C(N)=O)s3)cnc2c1 ?
Reply text: < 0.1 µM

Inquiry: What do you get for CC(Oc1cc(-c2cnc3cc(N)ccn23)sc1C(N)=O)c1ccccc1Cl (stereo not drawn) ?
Reply text: < 0.1 µM

Inquiry: What do you get for CC(Oc1cc(-c2cnn3ccccc23)sc1C(N)=O)c1ccccc1Cl (stereo not drawn) ?
Reply text: < 0.1 µM

Inquiry: What do you get for CC(Oc1cc(-c2cnc3[nH]ccc3c2)sc1C(N)=O)c1ccccc1Cl (stereo not drawn) ?
Reply text: 0.1 to 1 µM
